Each entry below carries its reported Pigweed plant response rating (0 to 100 scale, 0 is no effect, 100 is complete control).
Tested on: pigweed
Protocol Description: Test A pre-/postemergence herbicide test
Assay type: in vivo, Amaranthus retroflexus
Measurement Conditions: Postemergence, 500 g ai/ha
Description: […]
Endpoint Name: Pigweed plant response rating (0 to 100 scale, 0 is no effect, 100 is complete control)

Compound	Measured Value
O=C1NCC(c2cccc(OC(F)(F)C(F)F)c2)C1C(=O)Nc1ccccc1Cl (racemic)	20
Cc1ccc(C2CNC(=O)C2C(=O)Nc2ccc(F)cc2F)cc1F (racemic)	0
COc1ccc(C2CNC(=O)C2C(=O)Nc2cccc(F)c2F)cc1F (racemic)	0
O=C1NC[C@H](c2cccc(C(F)(F)F)c2)[C@H]1C(=O)Nc1ccccc1F	20
Cc1cccc(NC(=O)C2C(=O)NCC2c2cccc(C(F)(F)F)c2)c1F (racemic)	0
O=C1NCC(c2ccc(F)cc2)C1C(=O)Nc1ccccc1OC(F)F (racemic)	0
O=C1NCC(c2cccc(S(F)(F)(F)(F)F)c2)C1C(=O)Nc1ccccc1F (racemic)	0
O=C1NCC(c2cccc(C(F)(F)F)c2)C1C(=O)Nc1ccccc1Br (racemic)	0
O=C1NCC(c2cccc(S(F)(F)(F)(F)F)c2)C1C(=O)Nc1ccccc1C(F)(F)F (stereo not drawn)	60
O=C1NCC(c2cccc(OC(F)F)c2)C1C(=O)Nc1cccc(F)c1F (stereo not drawn)	80
O=C1NCC(c2ccc3ccccc3c2)C1C(=O)Nc1cccc(F)c1F (racemic)	0
O=C1NCC(c2ccc(C(F)(F)F)cc2)C1C(=O)Nc1ccccc1F (stereo not drawn)	40
O=C1NCC(c2cc(F)cc(F)c2)C1C(=O)Nc1ccc(F)cc1F (racemic)	20
CCc1cccc(C2CNC(=O)C2C(=O)Nc2ccccc2F)c1 (racemic)	0
COc1cc(C2CNC(=O)C2C(=O)Nc2ccc(F)cc2F)ccc1F (racemic)	0
O=C1NCC(c2cccc(OC(F)(F)C(F)F)c2)C1C(=O)Nc1cccc(F)c1F (racemic)	90
O=C1NCC(c2ccc3c(c2)OC(F)(F)O3)C1C(=O)Nc1ccc(F)c(F)c1F (racemic)	70
Cc1cc(C2CNC(=O)C2C(=O)Nc2ccc(F)cc2F)ccc1F (racemic)	0

###

Tested on: ducksalad
Protocol Description: Test C flooded paddy test
Format: in vivo, Heteranthera limosa
Measurement Conditions: Flood, 125 g ai/ha; scale of 0 to 100 where 0 is no effect and 100 is complete control; 13 to 15 days
The entries below come with measured Plant response rating, Ducksalad values attached.

Molecule	Plant response rating, Ducksalad
O=C1NCC(c2cccc(C(F)F)c2)C1C(=O)Nc1ccccc1F (racemic)	0
O=C1NCC(c2ccsc2)C1C(=O)Nc1ccccc1F (racemic)	0
CS(=O)(=O)c1ccccc1NC(=O)C1C(=O)NCC1c1ccc(F)c(F)c1 (racemic)	50
O=C1NCC(c2ccc(Cl)c(F)c2)C1C(=O)Nc1cccc(F)c1F (stereo not shown)	75
CC(C)c1cccc(C2CNC(=O)C2C(=O)Nc2ccccc2F)c1 (stereo not shown)	100
O=C1NCC(c2cccc(C(F)F)c2)C1C(=O)Nc1ccccc1C(F)(F)F (racemic)	0
O=C1NCC(c2ccc(F)cc2)C1C(=O)Nc1ccc(F)c(F)c1F (racemic)	100
O=C1NC[C@H](c2cccc(C(F)(F)F)c2)[C@H]1C(=O)Nc1ccccc1F	50
O=C1NC[C@@H](c2cccc(C(F)(F)F)c2)[C@@H]1C(=O)Nc1cccc(F)c1F	0
O=C1NCC(c2ccc(F)c(F)c2)C1C(=O)Nc1cccc(F)c1F (stereo not shown)	100

###

Test system: barnyardgrass
Protocol Description: Test C pre-/postemergence herbicide test
Type: in vivo, Echinochloa crus-galli
Measurement Conditions: Preemergence, 125 g ai/ha; scale 0 to 100 (0 no effect, 100 complete control)

Compound	Plant response rating, Barnyardgrass
O=C1NCC(c2ccc(F)cc2)C1C(=O)Nc1ccc(F)c(F)c1F (racemic)	95
O=C1NCC(c2ccc(C(F)(F)F)cc2)C1C(=O)Nc1cccc(F)c1F (stereo not shown)	95
O=C1NCC(c2ccc(F)c(F)c2)C1C(=O)Nc1cccc(F)c1F (racemic)	95
CC(C)c1cccc(C2CNC(=O)C2C(=O)Nc2ccccc2F)c1 (stereo not shown)	95

###

Test system: oilseed rape
Protocol Description: Test C pre-/postemergence herbicide test
Format: in vivo, Brassica napus
Measurement Conditions: Preemergence, 62 g ai/ha; scale 0 to 100 (0 no effect, 100 complete control)
Listing of entries alongside the reported Oilseed Rape plant response rating.

Compound	Oilseed Rape plant response rating
O=C1NCC(c2ccc(OC(F)F)cc2)C1C(=O)Nc1cccc(F)c1F (racemic)	70
O=C1NCC(c2ccc(Cl)cc2)C1C(=O)Nc1cccc(F)c1F (centres unmarked)	60
O=C1NCC(c2cccc(C(F)(F)F)c2)C1C(=O)Nc1ccc(F)c(F)c1F (centres unmarked)	55
CC(C)c1cccc(C2CNC(=O)C2C(=O)Nc2ccccc2F)c1 (centres unmarked)	0
CN1CC(c2ccc(F)c(F)c2)C(C(=O)Nc2cccc(F)c2F)C1=O (centres unmarked)	35
CN1CC(c2ccc(C(F)(F)F)cc2)C(C(=O)Nc2cccc(F)c2F)C1=O (centres unmarked)	70
O=C1NCC(c2ccc(C(F)(F)F)cc2)C1C(=O)Nc1ccccc1F (centres unmarked)	55
O=C1NCC(c2cccc(OC(F)F)c2)C1C(=O)Nc1cccc(F)c1F (centres unmarked)	5

###

Test system: giant foxtail
Protocol Description: Test A pre-/postemergence herbicide test
Type: in vivo, Setaria faberii
Measurement Conditions: preemergence; 500 g ai/ha; 0 to 100 scale, 0 is no effect and 100 is complete control
Description: […]
# Lookup of reported Plant response rating, Foxtail, Giant keyed by entry
Endpoint Name: Plant response rating, Foxtail, Giant

Molecule	Measured Value
O=C1NCC(c2ccc(OC(F)(F)F)cc2)C1C(=O)Nc1ccccc1C(F)(F)F (racemic) [Compound 258]	90
O=C1NCC(c2cccc(OC(F)F)c2)C1C(=O)Nc1cccc(F)c1F (centres unmarked) [Compound 224]	90
O=C1NCC(c2cccc(S(F)(F)(F)(F)F)c2)C1C(=O)Nc1cccc(F)c1F (centres unmarked) [Compound 214]	90
O=C1NCC(c2ccc(Cl)c(C(F)(F)F)c2)C1C(=O)Nc1ccccc1F (racemic) [Compound 267]	90
O=C1NCC(c2ccc(Cl)c(Cl)c2)C1C(=O)Nc1ccccc1Cl (racemic) [Compound 273]	90
CCCN1CC(c2ccc(C(F)(F)F)cc2)C(C(=O)Nc2ccccc2F)C1=O (centres unmarked) [Compound 181]	70
O=C1NCC(c2cccc(C(F)F)c2)C1C(=O)Nc1ccccc1F (racemic) [Compound 210]	90
CSc1cccc(C2CNC(=O)C2C(=O)Nc2ccccc2F)c1 (centres unmarked) [Compound 287]	80

###

Entries and their Plant response rating, Ragweed values follow.
System: ragweed
Protocol Description: Test A pre-/postemergence herbicide test
Assay type: in vivo, Ambrosia elatior
Measurement Conditions: Postemergence, 500 g ai/ha; 0 to 100 scale (0 no effect, 100 complete control)

Compound	Plant response rating, Ragweed
O=C1NCC(c2cc(F)cc(F)c2)C1C(=O)Nc1ccccc1Cl (racemic)	0
CSc1cccc(C2CNC(=O)C2C(=O)Nc2ccc(F)c(F)c2F)c1 (stereo not shown)	0
CC(C)N1CC(c2ccc(F)cc2)C(C(=O)Nc2cccc(F)c2F)C1=O (stereo not shown)	0
CN1CC(c2ccc(F)cc2)C(C(=O)Nc2ccccc2F)C1=O (stereo not shown)	0

###

Tested on: pigweed
Protocol Description: Test D pre-/postemergence herbicide test
Type: in vivo, Amaranthus retroflexus
Measurement Conditions: Preemergence; 250 g ai/ha; scale 0 to 100 (0 no effect, 100 complete control)
Each entry below carries its reported Plant response rating, Pigweed.
Endpoint Name: Plant response rating, Pigweed

Compound	Measured Value
O=C1NCC(c2ccc(C(F)(F)F)cc2)C1C(=O)Nc1ccccc1F (centres unmarked)	80
O=C1NCC(c2ccc(C(F)(F)F)cc2)C1C(=O)Nc1cccc(F)c1F (racemic)	90
O=C1NC[C@H](c2cccc(C(F)(F)F)c2)[C@H]1C(=O)Nc1cccc(F)c1F	50
O=C1NC[C@H](c2cccc(C(F)(F)F)c2)[C@H]1C(=O)Nc1ccccc1F	35
O=C1NCC(c2ccc(F)c(C(F)(F)F)c2)C1C(=O)Nc1cccc(F)c1F (racemic)	80

###

Test system: oilseed rape
Protocol Description: Test D pre-/postemergence herbicide test
Format: in vivo, Brassica napus
Measurement Conditions: Preemergence, 62 g ai/ha; scale 0 to 100 (0 no effect, 100 complete control)
Endpoint Name: Plant response rating, Oilseed Rape

Compound	Assayed Target	Endpoint Name	Measured Value
O=C1NCC(c2ccc(C(F)(F)F)cc2)C1C(=O)Nc1ccccc1F (stereo not drawn) [Compound 231]	oilseed rape	Plant response rating, Oilseed Rape	0
O=C1NCC(c2ccc(Cl)c(F)c2)C1C(=O)Nc1cccc(F)c1F (stereo not drawn) [Compound 52]	oilseed rape	Plant response rating, Oilseed Rape	0
O=C1NCC(c2ccc(C(F)(F)F)cc2)C1C(=O)Nc1cccc(F)c1F (stereo not drawn) [Compound 80]	oilseed rape	Plant response rating, Oilseed Rape	10
O=C1NCC(c2ccc(C(F)(F)F)cc2)C1C(=O)Nc1cccc(F)c1F (racemic) [Compound 202]	oilseed rape	Plant response rating, Oilseed Rape	35
O=C1NC[C@H](c2cccc(C(F)(F)F)c2)[C@H]1C(=O)Nc1ccccc1F [Compound 204]	oilseed rape	Plant response rating, Oilseed Rape	0
O=C1NCC(c2cc(F)c(F)cc2F)C1C(=O)Nc1cccc(F)c1F (stereo not drawn) [Compound 50]	oilseed rape	Plant response rating, Oilseed Rape	0

Hey, just so you know, these numbers are from patent US10294202B2.
